Molecular target: human MAT2A enzyme (Homo sapiens (Human))
Sequence (P31153 whole entry): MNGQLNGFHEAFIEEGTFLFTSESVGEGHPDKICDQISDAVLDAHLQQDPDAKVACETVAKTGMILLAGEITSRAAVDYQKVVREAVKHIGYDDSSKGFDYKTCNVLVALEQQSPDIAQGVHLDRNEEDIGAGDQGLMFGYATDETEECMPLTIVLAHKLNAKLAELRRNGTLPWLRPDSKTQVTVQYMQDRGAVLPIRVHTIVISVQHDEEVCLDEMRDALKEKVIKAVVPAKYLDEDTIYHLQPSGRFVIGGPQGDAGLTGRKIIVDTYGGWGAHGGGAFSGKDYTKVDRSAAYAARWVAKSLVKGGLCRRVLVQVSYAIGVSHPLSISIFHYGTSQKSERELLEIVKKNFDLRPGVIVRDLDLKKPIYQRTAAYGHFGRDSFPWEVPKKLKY
Experimental Readout: IC50 (nM)

Some solved cases for reference:
COC(=O)c1c(N)c2ccc(I)cc2n(-c2ccccc2C)c1=O ... 2.34
COC(=O)c1c(N)c2ccc(Br)cc2n(-c2ccc([C@@H](C)O)cc2)c1=O ... 1.44
COC(=O)c1c(N)c2ccc(I)cc2n(-c2ccc(C(C)O)nc2)c1=O (centres unmarked) ... 1.14
COC(=O)c1c(N)c2ccc(C3CC3)cc2n(-c2ccccc2)c1=O ... 6.76
COC(=O)c1c(N)c2ccc(C(F)F)cc2n(-c2ccc(N)cc2)c1=O ... 1.25
[2H]C([2H])([2H])OC(=O)c1c(N)c2ccc(OC(F)F)cc2n(-c2ccc(N)cc2C)c1=O ... 1.15

A = COC(=O)c1c(N)c2ccc(C(F)(F)F)cc2n(-c2ccc(Cl)cc2C)c1=O
B = [2H]C([2H])([2H])OC(=O)c1c(N)c2ccc(C(F)(F)F)nc2n(-c2ccc(C(C)O)cc2)c1=O (centres unmarked)
### Prompt I'm curious whether A or B has the smaller IC50 number. Which is it? Please indicate the selected item by its label.
### Response B

----------
Test: In vivo pharmacokinetic study in CD-1 mice
Settings: male, mouse, single oral gavage dose of 10 mg/kg, plasma
Experimental Readout: Cmax (ng/mL)

Consider the reported Cmax for these molecules:
COC(=O)c1c(N)c2ccc(Br)cc2n(-c2ccc(N)cc2C)c1=O ... 37500
COC(=O)c1c(N)c2ccc(Br)cc2n(-c2ccccc2)c1=O ... 1920
COC(=O)c1c(N)c2ccc(OC(F)(F)F)cc2n(-c2ccc(N)cc2)c1=O ... 18600
COC(=O)c1c(N)c2ccc(Br)cc2n(-c2ccc(N)cc2)c1=O ... 2320
COC(=O)c1c(N)c2ccc(C(F)(F)F)nc2n(-c2cccc3cnccc23)c1=O ... 9540
COC(=O)c1c(N)c2ccc(C(F)(F)F)cc2n(-c2ccccc2C)c1=O ... 2640

I = COC(=O)c1c(N)c2ccc(Cl)cc2n(-c2ccccc2)c1=O
II = COC(=O)c1c(N)c2ccc(C(F)(F)F)cc2n(-c2cccc3cnccc23)c1=O
III = COC(=O)c1c(N)c2ccc(Br)cc2n(-c2ccc(C)nc2)c1=O
### Prompt Returns the items ordered by Cmax, from maximum to minimum. # respond with the labels, arranged in the requested order
### Response III, II, I

1 = COC(=O)c1c(N)c2ccc(Br)cc2n(-c2ccc(N)nc2)c1=O
2 = COC(=O)c1c(N)c2ccc(C(F)(F)F)nc2n(-c2ccc(N)cc2Cl)c1=O
### Prompt // pick larger Cmax from pair: 1 vs 2 Indicate which entry you chose by stating its label.
### Response 2

----------
Assay: In vivo pharmacokinetic study in CD-1 mice
Settings: male, mouse, single oral gavage dose of 10 mg/kg, plasma
Experimental Readout: half-life (h)

COC(=O)c1c(N)c2ccc(Br)cc2n(-c2ccc(N)cc2)c1=O [Example 147] ... 8.44
COC(=O)c1c(N)c2ccc(Br)cc2n(-c2ccc(N)cc2C)c1=O [Example 238] ... 9.25
COC(=O)c1c(N)c2ccc(C(F)(F)F)cc2n(-c2ccccc2C)c1=O [Example 23] ... 6.51

----------
The following are reported IC50 results, target or system human MAT2A enzyme (Homo sapiens (Human), UniProt P31153).
Experimental Readout: IC50 (nM)

Below are worked cases with known answers.
COC(=O)c1c(N)c2ccc(Br)nc2n(-c2ccc(N)cc2C)c1=O ... 2.28
COC(=O)c1c(N)c2ccc(Br)nc2n(-c2ccc(C(C)O)cc2)c1=O (centres unmarked) ... 2.37
COC(=O)c1c(N)c2ccc(C)nc2n(-c2ccc([C@@H](C)O)cc2)c1=O ... 2.39
COC(=O)c1c(N)c2ccc(C(F)(F)F)cc2n(-c2ccc3ccoc3c2)c1=O ... 0.76

A = [2H]C([2H])([2H])OC(=O)c1c(N)c2ccc(C(F)(F)F)cc2n(-c2ccc(N)cc2)c1=O
B = COC(=O)c1c(N)c2ccc(C(F)(F)F)cc2n(-c2ccc3sccc3c2)c1=O
C = COC(=O)c1c(N)c2ccc(I)cc2n(-c2ccc(OC)cc2)c1=O
D = COC(=O)c1c(N)c2ccc(OC(F)(F)F)cc2n(-c2ccc(N)cc2)c1=O
### Prompt Sort ascending by IC50. Labels, ranked as asked.
### Response C, A, D, B
